Where do these numbers come from? They come from patent US20040224958A1.

ENDPOINT_LABEL: melting point

[
  {
    "MOLECULE": "CCCn1c(=O)ccc2cnc(Nc3ccccc3)nc21 [Example 41]",
    "MEASURED_RESULT": "163 to 164 °C"
  },
  {
    "MOLECULE": "CC1CCN(c2ccc(Nc3ncc4ccc(=O)n(C5CCCCC5)c4n3)cc2)CC1 [Example 159]",
    "MEASURED_RESULT": "208 to 209 °C"
  },
  {
    "MOLECULE": "CCN(CC)CCOc1ccc(Nc2ncc3ccc(=O)n(C4CC4)c3n2)cc1 [Example 134]",
    "MEASURED_RESULT": "119 to 121 °C"
  },
  {
    "MOLECULE": "COc1ccc(Cn2c(=O)ccc3cnc(Nc4ccccc4)nc32)cc1 [Example 58]",
    "MEASURED_RESULT": "215 to 216 °C"
  }
]

Data point: O=c1ccc2cnc(Nc3ccccc3)nc2n1C1CCCC1 [Example 108] ; melting point = 188 to 192 °C

Data point: CN(C)CCCN1CCN(c2ccc(Nc3ncc4ccc(=O)n(C5CC6CCC5C6)c4n3)cc2)CC1 (stereo not drawn) [Example 230] ; melting point = 212 to 213 °C
